Reference for the values: patent US20250345392A1

- Procedure Summary: 14-day repeat IV dose toxicity study with toxicokinetic evaluation on Day 1 and 14 in dogs
- Assay type: in vivo, beagle dogs
- Measurement Context: dog, in vivo, iv, 1 mg/kg/day, IV 1.0 mg/kg/day, male, Day 1, read-out: AUC0-∞ (converted)
Ends that are not written are not given here.
Property Measured: AUC(0-inf) (ng·h/mL)
The reply should contain only the number, in ng·h/mL.

Using known records, supply AUC(0-inf) for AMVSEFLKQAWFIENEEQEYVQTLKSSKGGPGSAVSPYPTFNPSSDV-NH2 [Peptide 1]
450

* * *

- Procedure Summary: Clinical test in humans, single 30-min i.v. infusion, plasma PK
- Assay type: in vivo
- Measurement Context: human, in vivo, iv, 100 ug/kg, single 30-min i.v. infusion 100 μg/kg, mean
Ends that are not written are not given here.
Property Measured: AUC(0-inf) (ng·h/mL)
Enter your answer as a number in ng·h/mL; do not include the unit.

State its AUC(0-inf) for this substance: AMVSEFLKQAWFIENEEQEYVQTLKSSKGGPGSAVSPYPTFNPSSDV-NH2 [Peptide 1]
1110

* * *

- Procedure Summary: Clinical test in humans, three 30-min i.v. infusions 8 hours apart, plasma PK
- Assay type: in vivo
- Measurement Context: human, in vivo, iv, 100 ug/kg, three 30-min i.v. infusions 8 h apart, 100 μg/kg each, GM, after the last infusion
Ends that are not written are not given here.
Property Measured: half-life (h)
Field: numeric (h). Do not append units.

State, in one line, measured half-life of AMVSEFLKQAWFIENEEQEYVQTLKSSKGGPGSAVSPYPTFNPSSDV-NH2 [Peptide 1]
2.04

* * *

- Procedure Summary: PK after single intravenous injection of Peptide 1 in male rats
- Set-up: species or system male Wistar (CRL: WI(Han)) rats
- Measurement Context: rat, in vivo, iv, 1 mg/kg, single IV 1.0 mg/kg, terminal elimination phase, read-out: CL
- Procedure: Peptide 1 in blood samples collected from animals used in the studies (rat and dog) has been measured by an LC-MS/MS method. Analysis of samples collected in the pharmacokinetic study in rats was performed prior to validation of the method. […] Peptide 1 was quantifiable in all plasma samples in the study. […] Plasma samples obtained 60 minutes post dosing in Group 1 had plasma concentration of Peptide 1 below the limit of quantification.
Ends that are not written are not given here.
Property Measured: clearance (mL/min/kg)
Provide the reading as a plain figure in mL/min/kg.

Give me measured clearance, please, for this substance: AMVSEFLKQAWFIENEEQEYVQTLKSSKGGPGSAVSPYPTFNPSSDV-NH2 [Peptide 1]
8.05

* * *

- Procedure Summary: 14-day repeat dose IV toxicity study with toxicokinetic evaluation on Day 1 and Day 14 in rats
- Assay type: in vivo, Wistar rats
- Measurement Context: rat, in vivo, iv, 1 mg/kg/day, IV 1.0 mg/kg/day, female, Day 14, read-out: AUC0-∞ (converted)
Ends that are not written are not given here.
Property Measured: AUC(0-inf) (ng·h/mL)
API: value field is a number in ng·h/mL; no unit string.

For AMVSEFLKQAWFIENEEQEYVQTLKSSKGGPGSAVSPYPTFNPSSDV-NH2 [Peptide 1] , write its AUC(0-inf).
1030

* * *

- Procedure Summary: Clinical test in humans, three 30-min i.v. infusions 8 hours apart, plasma PK
- Assay type: in vivo
- Measurement Context: human, in vivo, iv, 100 ug/kg, three 30-min i.v. infusions 8 h apart, 100 μg/kg each, median, read-out: tmax3
Ends that are not written are not given here.
Property Measured: Tmax (h)
Field format: number, assumed h, no unit text.

State its Tmax for this substance: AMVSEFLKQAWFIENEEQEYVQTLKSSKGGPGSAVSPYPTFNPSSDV-NH2 [Peptide 1]
16.5

* * *

- Procedure Summary: PK after single intravenous injection of Peptide 1 in male rats
- Set-up: species or system male Wistar (CRL: WI(Han)) rats
- Measurement Context: rat, in vivo, iv, single IV, initial phase, range over 0.1-10 mg/kg, read-out: volume of distribution
Ends that are not written are not given here.
Property Measured: Vd

Return reported Vd. Input substance: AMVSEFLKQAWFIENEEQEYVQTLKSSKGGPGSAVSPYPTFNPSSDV-NH2 [Peptide 1]
0.039 to 0.122 L/kg

* * *

- Procedure Summary: Clinical test in humans, three 30-min i.v. infusions 8 hours apart, plasma PK
- Type: in vivo
- Measurement Context: human, in vivo, iv, three 30-min i.v. infusions 8 h apart, 250 μg/kg each, GM, read-out: AUC0-t1
- Description: A total of 8 subjects were included in each group. In each group, 6 subjects received the active treatment and 2 received the placebo. […] Plasma samples were analyzed for Peptide 1 using validated Liquid chromatography—Tandem Mass spectrometry (LC-MS/MS) methods by Charles River Laboratories (CRL). […]
Ends that are not written are not given here.
Property Measured: AUC (ng·h/mL)
Note: unit ng·h/mL is implicit; provide only the numeric part.

Supply AUC value. Item: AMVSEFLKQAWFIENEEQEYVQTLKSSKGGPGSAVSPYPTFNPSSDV-NH2 [Peptide 1]
2500

* * *

- Procedure Summary: Clinical test in humans, three 30-min i.v. infusions 8 hours apart, plasma PK
- Format: in vivo
- Measurement Context: human, in vivo, iv, 250 ug/kg, three 30-min i.v. infusions 8 h apart, 250 μg/kg each, mean, read-out: AUC0-tau1
Ends that are not written are not given here.
Property Measured: AUC (ng·h/mL)
Write the answer as a number in ng·h/mL, unit excluded.

Entry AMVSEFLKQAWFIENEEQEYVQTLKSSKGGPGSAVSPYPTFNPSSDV-NH2 [Peptide 1] needs its AUC filled in; supply it.
2630

* * *

- Procedure Summary: 14-day repeat IV dose toxicity study with toxicokinetic evaluation on Day 1 and 14 in dogs
- Type: in vivo, beagle dogs
- Measurement Context: dog, in vivo, iv, 10 mg/kg/day, IV 10 mg/kg/day, female, Day 1, read-out: AUC0-∞ (converted)
Ends that are not written are not given here.
Property Measured: AUC(0-inf) (ng·h/mL)
Write down the numeric answer in ng·h/mL and omit the unit.

Return AUC(0-inf) (reported value) for this substance: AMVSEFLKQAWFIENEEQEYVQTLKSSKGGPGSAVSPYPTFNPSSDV-NH2 [Peptide 1]
4550

* * *

- Procedure Summary: Clinical test in humans, three 30-min i.v. infusions 8 hours apart, plasma PK
- Assay type: in vivo
- Measurement Context: human, in vivo, iv, 50 ug/kg, three 30-min i.v. infusions 8 h apart, 50 μg/kg each, GM, read-out: Global tmax
Ends that are not written are not given here.
Property Measured: Tmax (h)
Enter your answer as a number in h; do not include the unit.

Provide one value: measured Tmax of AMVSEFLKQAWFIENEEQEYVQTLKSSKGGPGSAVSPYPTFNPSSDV-NH2 [Peptide 1]
4.12

* * *

- Procedure Summary: Clinical test in humans, three 30-min i.v. infusions 8 hours apart, plasma PK
- Type: in vivo
- Measurement Context: human, in vivo, iv, 200 ug/kg, three 30-min i.v. infusions 8 h apart, 200 μg/kg each, mean, after the last infusion
Ends that are not written are not given here.
Property Measured: half-life (h)
// units = h; emit number, no label

Give half-life for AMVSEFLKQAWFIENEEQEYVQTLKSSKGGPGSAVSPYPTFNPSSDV-NH2 [Peptide 1]
1.94

* * *

- Procedure Summary: Clinical test in humans, single 30-min i.v. infusion, plasma PK
- Format: in vivo
- Measurement Context: human, in vivo, iv, 400 ug/kg, single 30-min i.v. infusion 400 μg/kg, mean, read-out: AUC0-24
Ends that are not written are not given here.
Property Measured: AUC(0-t) (ng·h/mL)
Report only the number, with the unit ng·h/mL understood.

Identify measured AUC(0-t) associated with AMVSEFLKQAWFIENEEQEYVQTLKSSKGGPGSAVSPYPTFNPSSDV-NH2 [Peptide 1]
4870

* * *

- Procedure Summary: 14-day repeat dose IV toxicity study with toxicokinetic evaluation on Day 1 and Day 14 in rats
- Format: in vivo, Wistar rats
- Measurement Context: rat, in vivo, iv, 10 mg/kg/day, IV 10 mg/kg/day, male, Day 1, read-out: AUC0-∞ (converted)
Ends that are not written are not given here.
Property Measured: AUC(0-inf) (ng·h/mL)
Quick reminder: number only, in ng·h/mL, skip the unit.

Note down AUC(0-inf) recorded for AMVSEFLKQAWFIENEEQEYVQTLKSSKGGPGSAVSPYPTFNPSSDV-NH2 [Peptide 1]
9200

* * *

- Procedure Summary: Clinical test in humans, three 30-min i.v. infusions 8 hours apart, plasma PK
- Assay type: in vivo
- Measurement Context: human, in vivo, iv, three 30-min i.v. infusions 8 h apart, 100 μg/kg each, GM, read-out: AUC0-t2
Ends that are not written are not given here.
Property Measured: AUC (ng·h/mL)
Write down the numeric answer in ng·h/mL and omit the unit.

Please look at this substance and report its AUC: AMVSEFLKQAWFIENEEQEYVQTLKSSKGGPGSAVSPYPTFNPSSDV-NH2 [Peptide 1]
1120
